Reference for the values: ChEMBL document CHEMBL3046159

# method.notes: Cytotoxicity against Rattus norvegicus (rat) F2408 cells assessed as cell viability at 0.0256 to 0.064 ug/ml after 24 hr by MTT assay
# Assay type: cell-based
# condition.info: read-out: Activity
quantity.measured: viability at 24 h (%)

smiles.notation	unit.of.measure	experimental.result
Cc1ccc(-c2nc3n(c2-c2ccc(C)cc2)CCCS3)cc1	%	100

====

# method.notes: Cytotoxicity against Rattus norvegicus (rat) F2408 cells assessed as cell viability at 0.0128 ug/ml after 24 hr by MTT assay
# Type: cell-based
# condition.info: read-out: Activity

smiles.notation	viability at 24 h, 0.0128 ug/ml (%)
Cc1ccc(-c2nc3n(c2-c2ccc(C)cc2)CCCS3)cc1	100
